Test system: K86415-001-R-J1-PDC complex spheroids, viability;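 also: spheroids exposed to agents for seven days before readout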
Assay: Anticancer human tumor K86415-001-R-J1-PDC patient-derived lung adenocarcinoma cell line growth inhibition [RAS]; active = viability on the fitted dose curve at most 10% of control; inactive = the rest
Settings: second compound 10 µM; first compound 0.1 µM
Excerpt: RAS pathway inhibitors in Combinations in Complex Spheroids A high-throughput screen of multi-cell type tumor spheroids was designed to identify active combinations of RAS pathway inhibitors and targeted small molecules. Complex spheroids include a stromal component modeled by human endothelial cells (HUVEC) and fibroblasts modeled by human mesenchymal stem cells (MSCs). […] Compounds. […] If the clinical Cmax for an agent had not been determined, the highest concentration tested was 10 microM. […]
Write down the outcome that applies. Available outcomes: active, inactive

Qu. Tell me the recorded outcome of this test for CCC(CC)c1cc(NC2CCC(N)C2)n2nccc2n1 (stereo unspecified) + C#Cc1c(F)ccc2cc(O)cc(-c3ncc4c(N5CC6CCC(C5)N6)nc(OCC56CCCN5CC(F)C6)nc4c3F)c12 .
Ans. inactive

Qu. Tell me the recorded outcome of this test for O=C(c1ccc(F)c(F)c1Nc1ccc(I)cc1F)N1CC(O)([C@@H]2CCCCN2)C1 + C#Cc1c(F)ccc2cc(O)cc(-c3ncc4c(N5CC6CCC(C5)N6)nc(OCC56CCCN5CC(F)C6)nc4c3F)c12 .
Ans. active

Qu. Tell me the recorded outcome of this test for Nc1ccn(C2OC(CO)C(O)C2(F)F)c(=O)n1 (stereo unspecified) + C#Cc1c(F)ccc2cc(O)cc(-c3ncc4c(N5CC6CCC(C5)N6)nc(OCC56CCCN5CC(F)C6)nc4c3F)c12 .
Ans. inactive

Qu. Tell me the recorded outcome of this test for CC(Nc1ccc2c(c1)OCCn1cc(N3C(=O)OCC3C(F)F)nc1-2)C(N)=O (stereo unspecified) + C#Cc1c(F)ccc2cc(O)cc(-c3ncc4c(N5CC6CCC(C5)N6)nc(OCC56CCCN5CC(F)C6)nc4c3F)c12 .
Ans. inactive

Qu. Tell me the recorded outcome of this test for Cc1nc(N2CCC3(CC2)COC(C)C3N)c(CO)nc1Sc1ccnc(N)c1Cl (stereo unspecified) + C#Cc1c(F)ccc2cc(O)cc(-c3ncc4c(N5CC6CCC(C5)N6)nc(OCC56CCCN5CC(F)C6)nc4c3F)c12 .
Ans. active

Qu. Tell me the recorded outcome of this test for C=CC(=O)Nc1cc(Nc2nccc(-c3cn(C)c4ccccc34)n2)c(OC)cc1N(C)CCN(C)C + C#Cc1c(F)ccc2cc(O)cc(-c3ncc4c(N5CC6CCC(C5)N6)nc(OCC56CCCN5CC(F)C6)nc4c3F)c12 .
Ans. inactive
